Ref: patent US20210347873A1

Below, each of the binders is paired with its reported mouse B lymphocyte proliferation (OD450 nm), antibody 0.0064 nM value.
molecular target: mouse BLyS protein (mouse, UniProt Q9WU72 69-309); experiment: cell-based or functional assay
Sequence (Q9WU72 69-309): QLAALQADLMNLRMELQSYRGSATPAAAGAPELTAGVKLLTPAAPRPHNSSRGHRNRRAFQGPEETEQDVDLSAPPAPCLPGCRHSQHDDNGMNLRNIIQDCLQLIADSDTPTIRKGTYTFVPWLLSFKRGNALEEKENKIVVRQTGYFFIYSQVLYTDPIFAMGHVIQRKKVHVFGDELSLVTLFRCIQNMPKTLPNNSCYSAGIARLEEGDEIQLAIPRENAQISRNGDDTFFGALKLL
Numbers only here, please. The scale is OD450 nm.

20D1B6E9E5 (antibody, V domains shown, Mouse hybridoma monoclonal antibody purified on Protein G) VH: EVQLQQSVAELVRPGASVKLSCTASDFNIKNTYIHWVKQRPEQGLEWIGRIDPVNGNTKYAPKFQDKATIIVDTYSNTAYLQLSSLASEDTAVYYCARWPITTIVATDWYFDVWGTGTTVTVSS VL: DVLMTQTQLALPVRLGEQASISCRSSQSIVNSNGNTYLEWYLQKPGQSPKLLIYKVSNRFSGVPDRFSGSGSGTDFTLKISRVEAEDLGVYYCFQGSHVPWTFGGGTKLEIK; 2180

// switching to the query binder
Reported mouse B lymphocyte proliferation (OD450 nm), antibody 0.0064 nM for 8E7D9C7F5 (antibody, V domains shown, Mouse hybridoma monoclonal antibody purified on Protein G) VH: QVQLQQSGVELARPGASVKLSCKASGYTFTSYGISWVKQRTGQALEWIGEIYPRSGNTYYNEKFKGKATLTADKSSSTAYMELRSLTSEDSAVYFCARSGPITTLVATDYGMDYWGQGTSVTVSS VL: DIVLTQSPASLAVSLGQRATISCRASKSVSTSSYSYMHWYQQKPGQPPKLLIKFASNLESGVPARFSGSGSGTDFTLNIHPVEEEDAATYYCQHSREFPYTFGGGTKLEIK : what is it? 2250
